# Test system: Streptococcus pneumoniae
# PROCEDURE_TEXT: Antibacterial activity against fluoroquinolone resistant Streptococcus pneumoniae SP-3765 by NCCLS method
# Assay type: functional
OBSERVABLE: MIC
Answer as a quantity: numeral, then unit.

Consider the worked cases shown below.
1) CCNC(=O)Nc1cn2c(-c3ncc(C)cn3)cc(-c3ccc(C)nc3)cc2n1; 0.25 µg/mL
2) CCNC(=O)Nc1cn2c(-c3nccc(C)n3)cc(-c3cnc(N(C)C)nc3)cc2n1; 0.125 µg/mL
3) CCNC(=O)Nc1cn2c(-c3ncc(C(F)(F)F)cn3)cc(-c3cccnc3)cc2n1; 0.25 µg/mL

Challenge: Field request: MIC | item: "CCNC(=O)Nc1cn2c(-c3ncc(C(C)C)cn3)cc(-c3cccnc3)cc2n1"
Response given: 0.25 µg/mL

Challenge: Value lookup for MIC; key = "CCNC(=O)Nc1cn2c(-c3nccc(C(=O)OC)n3)cc(-c3cccnc3)cc2n1"
Response given: 16 µg/mL

Challenge: Tell me the measured MIC of "CCNC(=O)Nc1cn2c(-c3ncc(Cl)cn3)cc(-c3cccnc3)cc2n1" , please.
Response given: 0.03 µg/mL
